Cited source: patent US20130236960A1

# Procedure text: Vitrification ability of cell membrane permeable substances by rapid cooling with liquid nitrogen
# Format: physicochemical
# Run parameters: 30% solution in PBS
Property label: vitrification by rapid cooling with liquid nitrogen

> print(dat)
                                   compound  assay.result
1              OCCCCO [BG, Butylene glycol]     vitrified
2  CC(O)COC(C)CO (centres unmarked) [DPG, Diprepylene glycol]     vitrified
3        CC(C)(O)CCO [IPG, Isoprene glycol]     vitrified
4  CC(O)CO (centres unmarked) [PG, Propylene glycol]     vitrified
